# target: SARS-CoV-2 spike (S) protein (SARS-CoV-2, UniProt P0DTC2 14-1208)
For each record, write down the corresponding log10 Kd.
# log10 transformed; quantity=Kd; unit=nM

Input: What value of measured log10 Kd is listed for antibody 311 (antibody, V domains shown) VH: QVQLQESGPGLVKPSETLSLTCTVSGYSISSGYYWGWIRQPPGKGLEWIGSIYHSGSTYYNPSLKSRVTISVDTSKNQFSLKLSSVTAADTAVYYCAREETLGSSWYESYIDYWGQGTLVTVSS VL: SYVLTQPPSVSVAPGKTARITCGGNNIGSKSVHWYQQKPGQAPVLVIYYDSDRPSGIPERFSGSNSGNTATLTISRVEAGDEADYYCQVWDSSSDHPRVFGGGTKLTVL ?
Output: 1.28

Input: What value of measured log10 Kd is listed for antibody 387 (antibody, V domains shown) VH: QVQLVESGGGVVQPGRSLRLSCAASGFTFSSYGMHWVRQAPGKGLEWVAVISYDGSNKYYADSVKGRFTISRDNSKNTLYLQMNSLRAEDTAVYYCAKDDTKNYGDLDIDYWGQGTLVTVSS VL: SYELTQPSSVSVSPGQTARITCSGDVLAKKYARWFQQKPGQAPVLVIYKDSERPSGIPERFSGSSSGTTVTLTISGAQVEDEADYYCYSAADNNLGVFGGGTKLTVL ?
Output: 1.57

Input: What value of measured log10 Kd is listed for antibody 370 (antibody, V domains shown) VH: QVQLVESGGGVVPPGRSLSLPCAASGFTFSAYAMHWLRQAPGKGLEWVAVISYDGTVKYVADSVRGRFTISRDNSNNTLYLQMTSLRSDDTAVYYCARDLGALAAAPTVYFVHWGQGTLVTVSS VL: SYVLTQPPSVSVAPGKTATITCAGEDIGRKSVHWYQQKPGQAPVLVIFYYSDRPSGIPDRFSGSVSGNTATLTIGRVEAGDEADYFCQVWDRTTNHVIFGGGTKVTVL ?
Output: 0.74

Input: What value of measured log10 Kd is listed for antibody 358 (antibody, V domains shown) VH: QVQLVESGGGVVQPGRSLRLSCAASGFNLNSYAMHWVRQASGKGLEWVSLMSYDGSIKYYADSVKGRFTVSGDNSRNTLFLQMNSLRPDDSALYYCVRGGVSGPNSFDLWGQGTTVTVSS VL: DVVMTQSPLSLPVTLGQPASISCRSSQSLVYSDGSTYVNWFQQRPGQSPRRLIYKVSNRDSGVPDRFSGSGSGTDFALKISRVEAEDVGVYYCMQGTHWPVTFGQGTKVEIK ?
Output: 0.23

Input: What value of measured log10 Kd is listed for antibody 357 (antibody, V domains shown) VH: QVQLVQSGAEVKKPGSSVKVSCKASGGTFSSYAISWVRQAPGQGLEWMGRIIPILGIANYAQKFQGRVTITADKSTSTAYMELSSLRSEDTAVYYCARGPIAVAGIGPWFDPWGQGTLVTVSS VL: QSVLTQPPSVSAAPGQKVTISCSGSSSNIGNNYVSWYQQLPGTAPKLLIYDNNKRPSGIPDRFSGSKSGTSATLGITGLQTGDEADYYCGTWDSSLSAVVFGGGTKLTVL ?
Output: -0.08

Input: What value of measured log10 Kd is listed for antibody 330 (antibody, V domains shown) VH: QVQLVESGGGVVQPGRSLRLSCAASGFTFSSYAMHWVRQAPGKGLEWVAVISYDGSNKYYADSVKGRFTISRDNSKNTLYLQMNSLRAEDTAVYYCARDFQYYDFWSGYLTVSSPTSYYGMDVWGQGTTVTVSS VL: NFMLTQPHSVSESPGKTVTISCTGSSGSIASNYVQWYQQRPGSAPTTVIYEDNQRPSGVPDRFSGSIDSSSNSASLTISGLKTEDEADYYCQSYDSSNVVFGGGTKLTVL ?
Output: 0.98
